Data provenance is patent US20260062479A1.

Molecular target: largest TIRC7 extracellular domain (T-cell immune response cDNA 7) (human) (UniProt Q13488)
Experiment: SPR, Biacore T200, 25 C, TIRC7 domain immobilized on CM5 chip, 1:1 kinetic fit
Please provide measured kon for the entries that follow.
Lab note: write values as number then unit, every time.

In plain terms, parent antibody (murine anti-TIRC7 antibody 17-20, cAb1457) (antibody, V domains shown) VH: QVQLKQSGPELVKPGASVKMSCKASGYTFTTYVMHWVKQKPGQGLEWIGYINPYNDGTNYNEKFKGKATLTSDKSSSTAYMELSTLTSEDSAVYYCAEFITKTVGGSNWYLDVWGAGTTVTVSS VL: DIVLTQSPAIMSASPGEKVTMTCSASSSISYIHWFQQKPGTSPKRWIYDTSKLPSGVPARFSGSGSGTSYSLTISSMEAEDAATYYCHQRSSYTWTFGGGTKLEIK has a documented kon of 520000 M⁻¹ s⁻¹

In plain terms, cAB1468-10.0 (antibody, V domains shown) VH: QVQLVQSGAEVKKPGASVKVSCKASGYTFTTYVMHWVRQAPGKGLEWMGYINPYNDGTNYNEKFKGRVTLTSDKSTSTAYMELSSLRSEDTAVYYCAEFITKTVGGSNWYLDVWGQGTTVTVSS VL: EIVLTQSPATLSLSPGERATLSCSASSSISYIHWYQQKPGQAPRRLIYDTSKLPSGIPARFSGSGSGTDFTLTISSLEPEDFAVYYCHQRSSYTWTFGGGTKLEIK has a documented kon of 1.13e+06 M⁻¹ s⁻¹

In plain terms, cAB1459-10.0 (antibody, V domains shown) VH: QVQLVQSGAEVKKPGASVKVSCKASGYTFTTYVMHWVRQAPGKGLEWMGYINPYNDGTNYNEKFKGRVTMTEDTSTDTAYMELSSLRSEDTAVYYCAEFITKTVGGSNWYLDVWGQGTTVTVSS VL: DIQLTQSPSFLSASVGDRVTITCSASSSISYIHWFQQKPGKAPKRWIYDTSKLPSGVPSRFSGSGSGTEYTLTISSLQPEDFATYYCHQRSSYTWTFGGGTKLEIK has a documented kon of 3.56e+06 M⁻¹ s⁻¹

In plain terms, cAB1467-10.0 (antibody, V domains shown) VH: QVQLVQSGAEVKKPGASVKVSCKASGYTFTTYVMHWVRQAPGKGLEWMGYINPYNDGTNYNEKFKGRVTLTSDKSTSTAYMELSSLRSEDTAVYYCAEFITKTVGGSNWYLDVWGQGTTVTVSS VL: DIQLTQSPSFLSASVGDRVTITCSASSSISYIHWFQQKPGKAPKRWIYDTSKLPSGVPSRFSGSGSGTEYTLTISSLQPEDFATYYCHQRSSYTWTFGGGTKLEIK has a documented kon of 1.24e+06 M⁻¹ s⁻¹
